target: Luciferin 4-monooxygenase (Photinus pyralis); assay: firefly luciferase enzyme inhibitors, primary screen, artefact control for luciferase-based inhibitor screens, biochemical, luminescence, ATPLite (AID 1006); details: 10 min, at 10 µM, hits give high values
Out of some 200,000 compounds screened, about 3,000 (1.5%) were called active. The list comes from a sample in which actives are over-represented; it also holds close analogues and randomly drawn compounds.
READOUT_NAME: inhibition (%)
Field: numeric (%). Do not append units.

(Q) State the recorded inhibition for this entry: C/C(N)=C(/C#N)C(=O)COC(=O)c1cc(-c2ccc(C)cc2)nc2ccccc12
(A) 12.9

(Q) Give the measured inhibition of C/C(=N\Nc1nc2ccccc2[nH]1)c1cccs1 .
(A) 73.6

(Q) Endpoint output: inhibition of COc1ccc(-c2cc(C(=O)n3cnc4ccccc43)c3ccccc3n2)cc1 . Value?
(A) 36.7

(Q) Entry CC(C)(C)C1CCC(C(=O)Nc2cccnc2)CC1 (stereo not given) has what inhibition?
(A) -3.4

Read the next record carefully.
(Q) State the recorded inhibition for this entry: C/C(=N\Nc1ncc(Cl)cc1Cl)c1ccc(S(=O)(=O)NCc2ccco2)cc1
(A) 2

---

target: Luciferin 4-monooxygenase (Photinus pyralis) (UniProt P08659); test: firefly luciferase enzyme inhibitors, primary screen, artefact control for luciferase-based inhibitor screens, biochemical, luminescence, ATPLite (AID 1006); details: 10 min, at 10 µM, hits give high values
Sequence (P08659 whole entry, looked up): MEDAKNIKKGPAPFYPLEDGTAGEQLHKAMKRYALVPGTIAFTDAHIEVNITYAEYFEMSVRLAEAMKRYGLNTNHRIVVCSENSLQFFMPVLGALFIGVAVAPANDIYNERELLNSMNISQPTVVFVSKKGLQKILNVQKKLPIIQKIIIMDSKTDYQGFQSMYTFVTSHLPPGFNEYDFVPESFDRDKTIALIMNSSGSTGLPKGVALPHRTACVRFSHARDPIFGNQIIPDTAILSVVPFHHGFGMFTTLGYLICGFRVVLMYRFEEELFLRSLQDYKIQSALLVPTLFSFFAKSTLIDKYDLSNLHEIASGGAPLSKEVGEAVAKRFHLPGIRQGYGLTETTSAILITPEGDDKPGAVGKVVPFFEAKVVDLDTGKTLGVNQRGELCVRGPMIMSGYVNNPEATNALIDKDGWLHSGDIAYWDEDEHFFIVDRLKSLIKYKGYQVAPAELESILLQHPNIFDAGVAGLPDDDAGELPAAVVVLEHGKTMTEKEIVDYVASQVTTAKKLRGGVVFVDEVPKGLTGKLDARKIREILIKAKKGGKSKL
The campaign covered roughly 200,000 compounds. About 3,000 (1.5%) were called active. Only a selection was taken, and actives are over-represented in it overall.
Rule: t for inhibition not less than 30%, f for anything less.

(Q) API: above_or_equal(metric=inhibition, cutoff=30%) for item COc1cc(SC)ccc1C(=O)NCCOc1ccccc1Cl
(A) f

(Q) I'd appreciate it if you could say whether COc1ccc2nc(Nc3nc(-c4cc5ccccc5oc4=O)cs3)sc2c1 has inhibition at least equal to 30%.
(A) t

(Q) Dear colleague, could you confirm whether O=C(NCC(O)c1ccc([N+](=O)[O-])cc1)C1CCCCC1 (stereo not given) has inhibition at or above 30%?
(A) f

(Q) For this compound, is measured inhibition 30% or higher? CN1c2ccccc2-c2nc3ccccc3n2C1c1ccco1 (stereo not given)
(A) f

Then there is this compound:
(Q) hey, is inhibition for this one >= 30%? O=C(Nc1ccc(-c2ccc3nncn3n2)cc1)C1CCCCC1
(A) f

---

target: Luciferin 4-monooxygenase (Photinus pyralis); test: firefly luciferase enzyme inhibitors, primary screen, artefact control for luciferase-based inhibitor screens, biochemical, luminescence, ATPLite (AID 1006); settings: 10 min, at 10 µM, hits give high values
Out of some 200,000 compounds screened, about 3,000 (1.5%) were called active. The sample as a whole holds a higher share of actives than the screen did.
READOUT_NAME: inhibition (%)
Value expressed in %; do not type the unit.

(Q) Reported inhibition, compound Cc1cc(/C=C2/C(=N)N3C(=NC2=O)SN=C3S(C)(=O)=O)c(C)n1-c1ccccc1 : ____
(A) 89.9

(Q) For the compound FC(F)(F)c1nc2ccccc2nc1N/N=C/c1ccc(Cl)cc1 , what inhibition is on record?
(A) 8.5

(Q) Which inhibition value is on record for COc1ccc(Cl)cc1NC(=O)Cn1nc(-c2ccc(C)cc2)n(C)c1=S ?
(A) -5.1

(Q) Fill blank: measured inhibition of the compound Cc1ccsc1C(=O)OCC(=O)c1cc2ccccc2o1 is ____.
(A) 1.6

(Q) Which inhibition value is on record for COCc1nnc(NC(=O)c2ccc3c(c2)OCO3)s1 ?
(A) 58.9

(Q) Look up inhibition for this compound: COc1ccc(NC(=O)Nc2ccc3nc(C)c(C)nc3c2)cc1
(A) -4.8

(Q) Request the reported inhibition associated with COc1ccc(NC(=O)Nc2cccc3cccnc23)cc1
(A) 65.4

(Q) So what's the measured inhibition for this one? CCOc1ncccc1C(=O)N(CC)CC(=O)Nc1ccc(NC(C)=O)cc1
(A) -8.7

(Q) Any idea what its inhibition is? The compound is CS(=O)(=O)c1ccc2c(c1)SC1=NC(=O)/C(=C/c3ccco3)C(=N)N12
(A) 13.2

(Q) Give the measured inhibition of O=C(Oc1cccnc1)c1cc2ccccc2oc1=O .
(A) -6.1

---
(Q) Consider the compound CCOC(=O)C1=C(N)N(c2ccc(C)cc2)C2=C(C(=O)CCC2)C1c1cccs1 (stereo not drawn) and give its measured inhibition.
(A) -3.4

(Q) Please look up its inhibition: O=c1c2ccccc2nc(N/N=C/c2ccccc2)n1O
(A) 90.5

(Q) Given the entry O=C(Nc1nc2ccccc2s1)c1ccc2c(c1)OCO2 , report its measured inhibition.
(A) 83.9

(Q) Look up inhibition for this compound: O=C(Nc1ccccc1)Nc1nc2ccccc2s1
(A) 52.9

(Q) Fill in: inhibition of COc1ccc(NC(=O)C2CCCN(S(=O)(=O)c3cccc4cccnc34)C2)cc1 (stereo not drawn) is ___
(A) -0.5

Origin of values: PubChem BioAssay AID1006
